Measured On: T1, purified interference factor(s) from Donor C (human)
T1 construct: the text names the donors 8, 19 and 30; also called interference in serum from Donor C
Experimental Protocol: SPR, interference factor immobilized; % of Fig. 9 reference
Result Type: interference binding, % of Reference Sequence (%)

I: SEQ ID NO: 65 (VHH) VHH: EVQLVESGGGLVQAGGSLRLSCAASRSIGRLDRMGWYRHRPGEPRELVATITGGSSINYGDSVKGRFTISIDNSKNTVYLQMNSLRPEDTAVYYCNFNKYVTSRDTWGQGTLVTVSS
II: SEQ ID NO: 88 (VHH) VHH: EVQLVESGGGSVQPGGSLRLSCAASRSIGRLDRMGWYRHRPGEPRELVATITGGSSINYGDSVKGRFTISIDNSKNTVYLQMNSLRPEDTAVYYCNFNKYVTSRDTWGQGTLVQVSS
**Q:** Lowest interference binding, % of Reference Sequence? choose I or II Answer format: the label of the selected item.
**A:** II
